# test system: human NHE3 (Homo sapiens)
# Construct: expressed in transfected cells; host or cells: OK26 cells (opossum kidney OK cells); OK26 ND sublines with opNHE1 reduced by 90% for A3
# Sequence (P48764 26-834): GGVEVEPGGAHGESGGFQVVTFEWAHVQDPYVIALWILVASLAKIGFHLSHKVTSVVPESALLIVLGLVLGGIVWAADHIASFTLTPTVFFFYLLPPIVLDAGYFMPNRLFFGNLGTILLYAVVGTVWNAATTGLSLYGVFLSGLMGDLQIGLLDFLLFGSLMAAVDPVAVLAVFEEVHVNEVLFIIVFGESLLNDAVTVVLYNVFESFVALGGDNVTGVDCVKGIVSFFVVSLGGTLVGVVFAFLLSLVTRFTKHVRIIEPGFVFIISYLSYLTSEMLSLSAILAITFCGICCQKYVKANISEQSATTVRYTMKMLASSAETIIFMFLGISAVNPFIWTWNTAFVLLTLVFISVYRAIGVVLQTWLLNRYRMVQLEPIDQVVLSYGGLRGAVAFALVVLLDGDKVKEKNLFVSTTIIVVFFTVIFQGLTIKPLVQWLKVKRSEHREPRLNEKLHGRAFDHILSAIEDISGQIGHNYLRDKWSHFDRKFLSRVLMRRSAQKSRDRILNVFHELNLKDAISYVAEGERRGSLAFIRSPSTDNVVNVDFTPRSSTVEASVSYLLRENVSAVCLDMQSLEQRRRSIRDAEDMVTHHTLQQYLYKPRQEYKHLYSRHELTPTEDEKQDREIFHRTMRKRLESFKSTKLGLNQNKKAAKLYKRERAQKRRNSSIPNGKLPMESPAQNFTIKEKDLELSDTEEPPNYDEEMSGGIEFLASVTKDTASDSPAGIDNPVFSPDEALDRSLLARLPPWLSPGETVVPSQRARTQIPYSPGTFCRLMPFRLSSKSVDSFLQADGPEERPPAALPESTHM
# measurement protocol: Improved version of measurements of NHE3 inhibitory activities (OK26 ND cell lines)
# Assay type: cell-based
# experimental context: OK26 ND cell lines (opNHE1 expression reduced by 90%), measurement time 8 minutes at 26° C.; read-out: hNHE3 IC50
# Text: Pharmacological Test Example 3: Improved Version of Measurements of NHE3 Inhibitory Activities OK26 cells express endogeneous NHE1 (opNHE1). In order to evaluate NHE3 inhibitory activities more precisely, OK26 ND cell lines in which the expression level of opNHE1 is reduced by 90% were established. […]
readout name: IC50

Here's what some known entries look like.
- smiles string: "COc1cc(-c2cc(C)ccc2/C=C(\\C)C(=O)NC(=N)N)ccc1O"
  IC50: "130 nM"
- smiles string: "C/C(=C\\c1c(F)cccc1-c1ccc(O)cc1)C(=O)NC(=N)N"
  IC50: "350 nM"

*Q* Look up IC50 for this compound: C/C(=C\c1c(Br)cccc1-c1ccc(O)cc1)C(=O)NC(=N)N
*A* 960 nM

*Q* Look up IC50 for this compound: C/C(=C\c1ccc(C)cc1-c1ccc(O)c(O)c1)C(=O)NC(=N)N
*A* 100 nM

*Q* Look up IC50 for this compound: C/C(=C\c1ccc(-c2ccc(O)cc2C)cc1C)C(=O)NC(=N)N
*A* 200 nM

*Q* Look up IC50 for this compound: COc1ccc(-c2cc(C)ccc2/C=C(\C)C(=O)NC(=N)N)cc1O
*A* 200 nM

*Q* Look up IC50 for this compound: C/C(=C\c1ccc(-c2ccc(O)cc2)cc1C)C(=O)NC(=N)N
*A* 240 nM

*Q* Look up IC50 for this compound: C/C(=C\c1ccc(-c2cc(C)c(O)c(C)c2)cc1-c1cc(C)c(O)c(C)c1)C(=O)NC(=N)N
*A* 100 nM

*Q* Look up IC50 for this compound: C/C(=C\c1cc(O)c(O)cc1-c1cccc(O)c1)C(=O)NC(=N)N
*A* 230 nM
